molecular target: adult mouse muscle AChR (α, β, δ, ε) (Mus musculus, UniProt P02716+P04756+P09690+P20782, V433A); construct: expressed in transfected cells; host or cells: HEK-293 cells (ATCC CRL-1573), transient calcium phosphate transfection, α:β:δ:ε = 2:1:1:1; experiment: Single-channel patch-clamp analysis of open-channel blockade of AChRs expressed in HEK-293 cells; assay type: cell-based
Sequence (P04756 21-457 V433A): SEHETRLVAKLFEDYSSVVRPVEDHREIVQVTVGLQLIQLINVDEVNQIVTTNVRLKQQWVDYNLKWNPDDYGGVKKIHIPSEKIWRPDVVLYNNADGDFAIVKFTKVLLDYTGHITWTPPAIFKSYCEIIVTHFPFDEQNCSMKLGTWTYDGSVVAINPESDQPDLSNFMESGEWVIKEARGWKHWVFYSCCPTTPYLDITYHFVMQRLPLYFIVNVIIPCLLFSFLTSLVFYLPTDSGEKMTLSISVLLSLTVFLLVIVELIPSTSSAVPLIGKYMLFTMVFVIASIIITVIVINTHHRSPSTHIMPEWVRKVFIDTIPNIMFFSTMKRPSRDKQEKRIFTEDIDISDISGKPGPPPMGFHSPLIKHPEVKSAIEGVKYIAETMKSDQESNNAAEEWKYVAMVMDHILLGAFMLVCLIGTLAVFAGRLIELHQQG
Sequence (P09690 24-501): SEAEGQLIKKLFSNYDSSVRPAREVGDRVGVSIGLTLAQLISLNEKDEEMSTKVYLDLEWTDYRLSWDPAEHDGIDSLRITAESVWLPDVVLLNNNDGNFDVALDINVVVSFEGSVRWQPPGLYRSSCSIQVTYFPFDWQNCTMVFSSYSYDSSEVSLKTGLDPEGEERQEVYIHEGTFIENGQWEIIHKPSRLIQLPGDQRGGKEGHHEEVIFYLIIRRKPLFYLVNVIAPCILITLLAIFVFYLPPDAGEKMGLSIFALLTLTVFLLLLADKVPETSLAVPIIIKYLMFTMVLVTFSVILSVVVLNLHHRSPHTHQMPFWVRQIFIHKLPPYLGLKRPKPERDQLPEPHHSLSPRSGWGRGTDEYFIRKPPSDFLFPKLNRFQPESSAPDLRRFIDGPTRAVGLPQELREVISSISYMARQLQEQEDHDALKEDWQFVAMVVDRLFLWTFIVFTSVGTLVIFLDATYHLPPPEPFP
Sequence (P02716 25-520): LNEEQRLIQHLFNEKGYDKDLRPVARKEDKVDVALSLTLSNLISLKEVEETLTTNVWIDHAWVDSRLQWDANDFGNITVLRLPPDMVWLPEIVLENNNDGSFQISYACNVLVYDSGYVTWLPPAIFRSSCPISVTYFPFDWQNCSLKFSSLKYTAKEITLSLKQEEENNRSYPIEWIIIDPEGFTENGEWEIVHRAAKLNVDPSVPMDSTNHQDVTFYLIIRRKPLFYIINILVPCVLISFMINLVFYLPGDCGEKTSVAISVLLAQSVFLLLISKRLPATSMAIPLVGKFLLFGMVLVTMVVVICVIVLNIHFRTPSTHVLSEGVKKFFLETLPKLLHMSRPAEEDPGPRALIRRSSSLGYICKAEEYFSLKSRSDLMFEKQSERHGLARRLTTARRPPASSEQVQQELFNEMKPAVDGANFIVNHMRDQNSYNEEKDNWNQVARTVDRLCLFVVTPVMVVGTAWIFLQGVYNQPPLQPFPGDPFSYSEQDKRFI
Sequence (P20782 21-493): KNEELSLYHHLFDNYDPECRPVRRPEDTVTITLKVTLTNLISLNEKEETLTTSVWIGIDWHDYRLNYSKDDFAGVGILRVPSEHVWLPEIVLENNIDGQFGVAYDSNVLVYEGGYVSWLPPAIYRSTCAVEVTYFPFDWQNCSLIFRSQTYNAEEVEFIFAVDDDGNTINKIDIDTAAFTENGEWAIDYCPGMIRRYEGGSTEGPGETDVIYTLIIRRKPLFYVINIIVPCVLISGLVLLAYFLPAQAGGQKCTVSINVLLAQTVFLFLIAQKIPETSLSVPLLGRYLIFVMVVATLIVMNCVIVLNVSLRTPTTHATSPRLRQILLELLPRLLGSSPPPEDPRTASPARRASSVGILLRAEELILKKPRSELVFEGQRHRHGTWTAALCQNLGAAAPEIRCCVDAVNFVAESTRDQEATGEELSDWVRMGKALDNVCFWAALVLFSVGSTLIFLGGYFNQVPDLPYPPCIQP
pKd: −log10 of the molar value.

- MOLECULE: "C[N+]1(CCOCCOCCOCCOCCOCCOCCOCC[N+]2(C)CCCCC2)CCCCC1 [PQ2]"
  pKd: 7.10

---

// values below are reported Kd
biological target: adult mouse muscle AChR (α, β, δ, ε) (Mus musculus, UniProt P02716+P04756+P09690+P20782, V433A); construct: expressed in transfected cells; host or cells: HEK-293 cells (ATCC CRL-1573), transient calcium phosphate transfection, α:β:δ:ε = 2:1:1:1; experiment: Single-channel patch-clamp analysis of open-channel blockade of AChRs expressed in HEK-293 cells; format: cell-based; settings: predominant blockade mode; 100 µM ACh, +70 mV; read-out: Kd (= k–B/k+B) for the open AChR pore

- COMPOUND: "CC[N+]1(CCOCCOCCOCCOCCOCCOCCOCC[N+]2(CC)CCCCC2)CCCCC1 [PQ3]"
  Kd: "170 nM"
- COMPOUND: "CC[N+](CC)(CC)CCOCCOCCOCCOCCOCCOCCOCC[N+](CC)(CC)CC [PQ4]"
  Kd: "190 nM"
- COMPOUND: "CCC[N+](C)(CCC)CCOCCOCCOCCOCCOCCOCCOCC[N+](C)(CCC)CCC [PQ5]"
  Kd: "120 nM"
- COMPOUND: "C[N+]1(CCOCCOCCOCCOCCOCCOCCOCC[N+]2(C)CCCC2)CCCC1 [PQ1]"
  Kd: "3000 nM"

Data provenance is paper PMC4227698.
